Test: qHTS for Inhibitors of human tyrosyl-DNA phosphodiesterase 1 (TDP1): qHTS in cells in presence of CPT; also: nearly all actives have a fitted effect of over 55% in size; also: potency is read from the fitted curve at half-maximal effect
Details: chicken DT40 Tdp1-/-;hTDP1 cells + 20 nM CPT, ATP luminescence, 48 h; series mostly up to 46.2 µM
About 50,000 (12%) of roughly 420,000 compounds were called active. Roughly 26% stayed inconclusive and do not appear here. Shown is part of a subset that was picked to be rich in actives.
quantityKind: Potency

Use these answered entries as a reference point.
CSCC[C@H](NC(=O)OC(C)(C)C)C(=O)N/N=C/c1cc2ccc(C)cc2nc1Cl = inactive
c1ccc(C2=Nc3cccc4cccc(c34)N2)cc1 = 7.31 µM (active)
CCCCNC(=O)OC1CC2CC1[C@H]1CCCCN1C2=O (stereo partly drawn) = inactive
CCCCCCNCCn1cnc2c(N)ncnc21 = inactive
CC1=NNC(=O)C1CC(=O)N/N=C/c1ccncc1 (stereo not drawn) = inactive
Nc1nc(COC(=O)CCC(=O)c2ccc(Cl)cc2)nc(Nc2ccccc2)n1 = inactive
COc1ccc(CCNC(=O)C2CCCN2C(=O)Nc2ccccc2)cc1OC (stereo not drawn) = inactive
CC(=O)N1CCCc2ccc(NS(=O)(=O)c3ccc(F)cc3F)cc21 = inactive
O=C(Nc1nnc([C@H]2C[C@H](O)[C@@H](CO)O2)s1)c1cccc(Cl)c1 = inactive
O=[N+]([O-])c1ccccc1Nc1ccc(O)cc1 = inactive

stdin: For COc1cccc(N2CC(C(=O)Nc3c(C)cccc3C)CC2=O)c1 (stereo not drawn) , what is its reported Potency?
stdout: inactive

stdin: Potency lookup needed for CN(Cc1ccccc1)C(=O)[C@@H]1CCCN1C(=O)[C@@H]1CCCN1C(=O)c1c(F)cccc1F , thanks.
stdout: inactive

stdin: Potency for Cc1ccc(Cn2c(SCC(=O)N/N=C/c3ccccc3OCC(=O)O)nc3ccccc32)cc1 ?
stdout: inactive

stdin: Need Potency of COc1ccc(N2CCC(N3CCN(C)C(CCO)C3)CC2)cc1 (stereo not drawn) , thanks.
stdout: inactive

stdin: # Potency lookup, item COc1ccccc1CNc1nc2ccc(Cl)cc2n2cnnc12
stdout: inactive

stdin: May I ask what Potency has been recorded for COc1ccc(CCNC(=O)c2c3c(nc4ccccc24)C(=O)N(C2CCCCC2)C3)cc1OC ?
stdout: 20.6 µM (active)

stdin: // lookup Potency for O=C(Nc1ccccc1)/C(=C\c1ccco1)NC(=O)c1ccco1
stdout: inactive

stdin: Record request: Potency value, item COc1ccc(Nc2oc(-c3ccccc3Cl)nc2C#N)cc1
stdout: 2.91 µM (active)

stdin: What value of Potency has been reported for the following compound? CC1(C)CC2CC(C)(CN2c2ncnc3ccc(Br)cc23)C1 (stereo not drawn)
stdout: 5.17 µM (active)

stdin: # input compound: COc1ccc(CCNC(=O)CCC(=O)NC2CCCCC2)cc1OC ; wanted: its Potency
stdout: inactive

* * *

Test: qHTS for Inhibitors of human tyrosyl-DNA phosphodiesterase 1 (TDP1): qHTS in cells in presence of CPT; also: nearly all actives have a fitted effect of over 55% in size
Settings: chicken DT40 Tdp1-/-;hTDP1 cells + 20 nM CPT, ATP luminescence, 48 h; series mostly up to 46.2 µM
In all, about 420,000 compounds went through this assay and about 50,000 (12%) were called active. Not shown: some 26% with an inconclusive outcome. The call rests on the fitted dose curve; in most records, active means well fitted inhibition curve with a large enough effect; inconclusive means small, poorly fitted or top-dose-only effect; inactive means flat fitted curve, though single readings scatter. The entries come from a sample that favours actives as a whole.
Response enum: yes (1) for active, no (0) for inactive

COc1ccc(C(=O)OCC(=O)NCC2CCCCC2)cc1S(=O)(=O)N1CCCc2ccccc21 = no (0)
CCN(CC)CCNCc1ccc(OCc2ccc(Cl)nc2)c(OC)c1 = no (0)
CCCS(=O)(=O)NC(=O)C1(C)CCCN(C(=O)c2ccnc(Cl)c2)C1 (stereo not drawn) = no (0)
COc1ccc(S(=O)(=O)N2CCCCC2)cc1Br = no (0)
O=C(Nc1ccc2c(c1)OCO2)C1CC(c2c(F)cccc2Cl)=NO1 (stereo not drawn) = no (0)

stdin: Tell me the assay call for CC(=O)OCc1cc2cc(C)ccc2[nH]c1=O please.
stdout: no (0)

stdin: # fetch the recorded call for CCOC(=O)c1nnn2c3ccccc3c(=O)n(C)c12 here
stdout: no (0)

Cited source: PubChem BioAssay AID686979
